Biological target: T1, IL-18 binding protein (IL-18BP) (UniProt O95998 31-194)
T1 sequence (looked up): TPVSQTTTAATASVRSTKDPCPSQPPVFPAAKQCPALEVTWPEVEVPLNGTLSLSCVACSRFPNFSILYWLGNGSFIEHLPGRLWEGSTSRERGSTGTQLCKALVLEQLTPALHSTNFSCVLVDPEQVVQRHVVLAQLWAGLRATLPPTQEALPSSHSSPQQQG
Test: cell-based or functional assay
measured-endpoint: Activity, +100 nM BP, DF-25000004
Output: the number by itself.

- binder: "IL-18 variant G3P, E6K, D54Y, S55P, T63S, N91S, R104Q (ligand) YFPKLKSKLSVIRNLNDQVLFIDQGNRPLFEDMTDSDMRDNAPRTIFIISMYKYPQPRGMAVSISVKSEKISTLSSENKIISFKEMNPPDSIKDTKSDIIFFQQSVPGHDNKMQFESSSYEGYFLASEKERDLFKLILKKEDELGDRSIMFTVQNED"
  Activity, +100 nM BP, DF-25000004: 0.77

What Activity, +100 nM BP, DF-25000004 value was documented for this binder, IL-18 variant G3Q, E6N (ligand) YFQKLNSKLSVIRNLNDQVLFIDQGNRPLFEDMTDSDMRDNAPRTIFIISMYKDSQPRGMAVTISVKSEKISTLSSENKIISFKEMNPPDNIKDTKSDIIFFQRSVPGHDNKMQFESSSYEGYFLASEKERDLFKLILKKEDELGDRSIMFTVQNED ?
0.84

What Activity, +100 nM BP, DF-25000004 value was documented for this binder, IL-18 variant N91S, R104H (ligand) YFGKLESKLSVIRNLNDQVLFIDQGNRPLFEDMTDSDMRDNAPRTIFIISMYKDSQPRGMAVTISVKSEKISTLSSENKIISFKEMNPPDSIKDTKSDIIFFQHSVPGHDNKMQFESSSYEGYFLASEKERDLFKLILKKEDELGDRSIMFTVQNED ?
0.11

What Activity, +100 nM BP, DF-25000004 value was documented for this binder, IL-18 variant G3D, E6Q, R27S, K53R, D54A, S55R, T63S, N91Q (ligand) YFDKLQSKLSVIRNLNDQVLFIDQGNSPLFEDMTDSDMRDNAPRTIFIISMYRARQPRGMAVSISVKSEKISTLSSENKIISFKEMNPPDQIKDTKSDIIFFQRSVPGHDNKMQFESSSYEGYFLASEKERDLFKLILKKEDELGDRSIMFTVQNED ?
0.09

What Activity, +100 nM BP, DF-25000004 value was documented for this binder, IL-18 variant G3Y, E6S, K53S, D54W, S55L, T63S, N91I (ligand) YFYKLSSKLSVIRNLNDQVLFIDQGNRPLFEDMTDSDMRDNAPRTIFIISMYSWLQPRGMAVSISVKSEKISTLSSENKIISFKEMNPPDIIKDTKSDIIFFQRSVPGHDNKMQFESSSYEGYFLASEKERDLFKLILKKEDELGDRSIMFTVQNED ?
0.12

What Activity, +100 nM BP, DF-25000004 value was documented for this binder, IL-18 variant G3L, E6N, I22M, T63V, N91T, R104P (ligand) YFLKLNSKLSVIRNLNDQVLFMDQGNRPLFEDMTDSDMRDNAPRTIFIISMYKDSQPRGMAVVISVKSEKISTLSSENKIISFKEMNPPDTIKDTKSDIIFFQPSVPGHDNKMQFESSSYEGYFLASEKERDLFKLILKKEDELGDRSIMFTVQNED ?
0.07

What Activity, +100 nM BP, DF-25000004 value was documented for this binder, IL-18 variant G3P, E6N, D54Y, T63S, N91S, R104Q (ligand) YFPKLNSKLSVIRNLNDQVLFIDQGNRPLFEDMTDSDMRDNAPRTIFIISMYKYSQPRGMAVSISVKSEKISTLSSENKIISFKEMNPPDSIKDTKSDIIFFQQSVPGHDNKMQFESSSYEGYFLASEKERDLFKLILKKEDELGDRSIMFTVQNED ?
0.08
